Cited source for all entries: ChEMBL document CHEMBL4840351

test system: TMD8; assay: Antiproliferative activity against human TMD8 cells assessed as reduction in cell viability incubated for 72 hrs by celltiter-glo assay; conditions: TMD8, 72 h
# IC50 per entry
Give a bare numeral; the unit nM is implied.

>>> df
                                   compound  resultvalue
0  C=CC(=O)N1CCCC[C@H]1c1nc(-c2ccc(C(=O)Nc3cc(C(F)(F)F)ccn3)cc2)c(C(N)=O)n1N           25
1  CC#CC(=O)N1CCCC[C@H]1c1nc(-c2ccc(C(=O)Nc3cc(C(F)(F)F)ccn3)cc2)c(C(N)=O)n1N           54

Next item in the queue.
Name the recorded IC50 of the compound listed here: CC#CC(=O)N1CCC[C@H]1c1nc(-c2ccc(C(=O)Nc3ccccn3)cc2)c2c(N)nccn12 [ACALABRUTINIB] 24
